target: FPR2 (Homo sapiens); test: WKYMVM-induced Ca2+ flux in human neutrophils
Sequence (P25090 whole entry): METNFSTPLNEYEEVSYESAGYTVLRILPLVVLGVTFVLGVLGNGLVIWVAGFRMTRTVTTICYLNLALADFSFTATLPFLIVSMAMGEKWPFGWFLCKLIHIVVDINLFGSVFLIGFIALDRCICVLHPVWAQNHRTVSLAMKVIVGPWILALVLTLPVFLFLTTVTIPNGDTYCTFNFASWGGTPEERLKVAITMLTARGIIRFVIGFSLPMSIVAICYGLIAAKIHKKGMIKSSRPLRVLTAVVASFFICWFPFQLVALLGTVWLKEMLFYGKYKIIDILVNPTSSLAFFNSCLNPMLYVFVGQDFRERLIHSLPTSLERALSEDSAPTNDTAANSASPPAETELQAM
pIC50: −log10 of the molar value.

{"columns": ["compound", "pIC50"],
 "data": [
  ["CCCCCCN1C(=O)C(O)=C(C(=O)c2ccc(C)cc2)C1c1ccc(OC)cc1OC (stereo not shown)", 5.77]
]}
